B1: UBE2R2 (parent)
chain: DPQSGELPSERWNPTQNVRTILLS

variants of: B1; assay: protein stability index of a GFP-peptide fusion (GPS, HEK-293T) (PSI 1-6); higher = more stable; details: c terminus: a fixed tail appended;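 note: lentivirally expressed fusions sorted by FACS into six bins by GFP to DsRed ratio, PSI derived from sequencing read proportions per bin multiplied by bin number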
Note to self: values exactly at 3 are yes. So protein stability index at or above 3 is yes, below is no.

# example entries with known answers
* D1S | no
* Q3F | yes
* T15S | yes

Record V18I ; criterion: protein stability index no lower than 3. Met?
yes

Is protein stability index at least 3? Consider L22A
yes

Quick check: does S9H have protein stability index greater than or equal to 3?
yes

Say whether T20S shows protein stability index of 3 or more.
yes

hey, is protein stability index for this one >= 3? W12L
yes
